GI50 values, listed per item
- Tested on: HCT-116
- Assay overview: NCI tumour cell line growth inhibition, 48 h
Activity calls are given as the source filed them. No stated cut-off is given here; in the data, active = GI50 up to about 1.1 µM and inactive = higher.

>  <Molecule>
O=c1c2cc(Br)ccc2ncn1COCc1ccccc1

>  <GI50>
61.8 µM (inactive)

$$$$
>  <Molecule>
COC1CC(N)C(O)C(C)O1 (stereo not given)

>  <GI50>
> 100 µM (inactive)

$$$$
>  <Molecule>
Fc1nc(Sc2ncnc3nc[nH]c23)nc(-c2c3ccccc3c3sc4ccccc4n23)n1

>  <GI50>
> 100 µM (inactive)

$$$$
>  <Molecule>
c1ccc(CCN2CCc3[nH]c4ccccc4c3C2)cc1

>  <GI50>
14.5 µM (inactive)

$$$$
>  <Molecule>
CCC/C=C\C=C\C1(NS(=O)(=O)c2ccc(C)cc2)CCC(C(C)(C)C)CC1 (stereo not given)

>  <GI50>
15.4 µM (inactive)

$$$$
>  <Molecule>
COc1cc2cc(OC(C)=O)c3cc4c(cc3c2c(OC)c1OC)OCO4

>  <GI50>
> 100 µM (inactive)

$$$$
>  <Molecule>
CC(C)N(C(=O)c1ccc(NCc2cc(O)ccc2O)cc1)C(C)C

>  <GI50>
15.5 µM (inactive)

$$$$
>  <Molecule>
O=C1OC2(c3ccccc3Oc3ccccc32)c2ccccc21

>  <GI50>
> 100 µM (inactive)

$$$$
>  <Molecule>
[O-][n+]1onc(-c2ccccc2)c1CN1CCOCC1

>  <GI50>
> 100 µM (inactive)

$$$$
>  <Molecule>
COC(=O)C(C)(C)/N=C/N(C)C

>  <GI50>
> 100 µM (inactive)

$$$$
>  <Molecule>
O=C1c2ccccc2C(=O)c2sc(Nc3ccc(Cl)c(Cl)c3)nc21

>  <GI50>
3 µM (inactive)

$$$$
>  <Molecule>
N#CCCC[Si]12OCCN(CCO1)CCO2

>  <GI50>
> 100 µM (inactive)

$$$$
>  <Molecule>
C=C1CC2(C)CCC(OC(=O)C3(C)OC3C)C(C)(OC(C)=O)C2CC1=C(C)C (stereo not given)

>  <GI50>
> 100 µM (inactive)

$$$$
>  <Molecule>
Cc1cc(NC(=S)Nc2ccccc2)c(NC(=S)Nc2ccccc2)cc1C

>  <GI50>
14.3 µM (inactive)

$$$$
>  <Molecule>
COC(=O)[C@H]1CO[C@@H](C(C)(C)C)N1C(=O)N1C=CC(=O)C[C@@H]1C

>  <GI50>
> 100 µM (inactive)

$$$$
>  <Molecule>
c1ccc(CN2CCN3CCN(CC2)CCN(Cc2ccccc2)CC3)cc1

>  <GI50>
4.09 µM (inactive)

$$$$
>  <Molecule>
Cc1c(C)c2ccc(OCC(O)COC(C)C)c(C)c2oc1=O (stereo not given)

>  <GI50>
18.5 µM (inactive)

$$$$
>  <Molecule>
COC(=O)c1ccc(CCC2=CC(=O)C=CC2=O)cc1

>  <GI50>
7.8 µM (inactive)

$$$$
>  <Molecule>
COc1cc2cccc(N)c2cc1OC

>  <GI50>
> 100 µM (inactive)

$$$$
>  <Molecule>
Cc1cccnc1N/C=C1\C(=O)NC(=O)N(C)C1=O

>  <GI50>
> 100 µM (inactive)

$$$$
>  <Molecule>
NCCOc1ccc(/C(=C(/Cl)c2ccccc2)c2ccccc2)cc1

>  <GI50>
7.19 µM (inactive)

$$$$
>  <Molecule>
O=C(CCc1ccccc1)n1cccc1CO

>  <GI50>
> 100 µM (inactive)

$$$$
>  <Molecule>
O=C(O)c1ccc(C2COc3ccc(Cl)cc3C2)cc1 (stereo not given)

>  <GI50>
> 100 µM (inactive)

$$$$
>  <Molecule>
CC(C)CC(=O)N1CCN(C(=O)CC(C)C)c2ccccc21

>  <GI50>
> 100 µM (inactive)

$$$$
>  <Molecule>
Cn1c(=O)c2c(nc(NCCNc3nc4c(c(=O)n(C)c(=O)n4C)n3C)n2C)n(C)c1=O

>  <GI50>
> 100 µM (inactive)

$$$$
>  <Molecule>
CC1(CC(=O)OC(C#C[Si](C)(C)C)Cc2ccccc2)OCCO1 (stereo not given)

>  <GI50>
> 100 µM (inactive)

$$$$
>  <Molecule>
COc1ccc2c(c1)-c1c(c3ccccc3n1CCN1CCOCC1)CC2

>  <GI50>
22.4 µM (inactive)

$$$$
>  <Molecule>
CC(C)C(=O)Nc1nc2[nH]cnc2c(=O)[nH]1

>  <GI50>
> 100 µM (inactive)

$$$$
>  <Molecule>
Cc1nnc(N)nc1/C=C\c1ccc(Cl)cc1Cl

>  <GI50>
26.9 µM (inactive)

$$$$
>  <Molecule>
OCC1CCCC1O (stereo not given)

>  <GI50>
> 100 µM (inactive)

$$$$
>  <Molecule>
CCOC1(COP(=O)(OCc2ccccc2)OCc2ccccc2)COC(COP(=O)(OCc2ccccc2)OCc2ccccc2)(OCC)CO1 (stereo not given)

>  <GI50>
> 100 µM (inactive)

$$$$
>  <Molecule>
N=c1nc(N)c2cc3c(N)nc(=N)c3cc12

>  <GI50>
4.55 µM (inactive)

$$$$
>  <Molecule>
CC(C)NC(=O)OCc1c(COC(=O)NC(C)C)c(-c2ccc(Cl)c(Cl)c2)n2c1CCC2

>  <GI50>
51.8 µM (inactive)

$$$$
>  <Molecule>
O=[N+]([O-])c1c(/C=N/c2ccccc2)oc(-c2ccc3c(c2)OCO3)c1-c1ccc2c(c1)OCO2

>  <GI50>
> 100 µM (inactive)

$$$$
>  <Molecule>
COC(=O)[C@H]1[C@@H](C(C)C)O[C@@H](C(C)C)O[C@H]1C(F)(F)F

>  <GI50>
> 100 µM (inactive)

$$$$
>  <Molecule>
O=C1Cc2ccccc2CCc2ccsc21

>  <GI50>
> 100 µM (inactive)

$$$$
>  <Molecule>
CC(=O)CC(=O)CCCC(=O)Nc1ccc(Cl)cc1Cl

>  <GI50>
> 100 µM (inactive)

$$$$
>  <Molecule>
CCCCCCCCCCCCCCCCNC(=O)/C(=C\c1ccc(Cl)c(Cl)c1)NC(=O)c1ccccc1

>  <GI50>
37.9 µM (inactive)

$$$$
>  <Molecule>
N=C(N)SCc1ccc(N=C=S)cc1

>  <GI50>
14 µM (inactive)

$$$$
>  <Molecule>
CC(=O)O[C@H]1CSC[C@@H](OC(C)=O)C1[N+](=O)[O-] (stereo not given in full)

>  <GI50>
95.3 µM (inactive)

$$$$
>  <Molecule>
COc1cc(C=O)cc(/C=N/n2c3ccccc3c3ccccc32)c1O

>  <GI50>
10.9 µM (inactive)

$$$$
>  <Molecule>
COC(=O)c1ccc(O)c2nc3c(C=O)c(O)cc(O)c3nc12

>  <GI50>
0.0977 µM (active)

$$$$
>  <Molecule>
O=C(CCn1[nH]c(=O)c(Cl)c(Cl)c1=O)NOCCCc1ccccc1

>  <GI50>
> 100 µM (inactive)

$$$$
>  <Molecule>
CC(C)(C)c1cc(-c2c3nc(c(-c4cc(C(C)(C)C)cc(C(C)(C)C)c4)c4ccc([nH]4)c(-c4cc(C(C)(C)C)cc(C(C)(C)C)c4)c4nc(c(-c5cc(C(C)(C)C)cc(C(C)(C)C)c5)c5ccc2[nH]5)C=C4)C=C3)cc(C(C)(C)C)c1

>  <GI50>
> 100 µM (inactive)

$$$$
>  <Molecule>
COC(=O)C1C(=O)CC2CCCCC21 (stereo not given)

>  <GI50>
> 100 µM (inactive)

$$$$

###

GI50 values, listed per item
- System: BT-549
- Assay overview: NCI tumour cell line growth inhibition, 48 h
Activity calls are given as the source filed them. No stated cut-off is given here; in the data, active = GI50 up to about 1.1 µM and inactive = higher.
Property name: GI50

>  <Compound>
O=C1NC(=O)[C@H]2C3C=CC([C@@H]12)[C@@H]1C(=O)NC(=O)[C@H]31

>  <Result>
> 100 µM (inactive)

$$$$
>  <Compound>
N=c1c2ccccc2nc2oc3ccccc3n12

>  <Result>
51.2 µM (inactive)

$$$$
>  <Compound>
CN(C)CCCNC(=O)c1cc(NC(=O)c2cc(NC(=O)c3cc(NC(=O)CCCn4ccc(CO)c4CO)cn3C)cn2C)cn1C

>  <Result>
2.64 µM (inactive)

$$$$
>  <Compound>
Cc1occc1C(=S)Nc1ccc(Cl)c(/C=N/OC(C)(C)C)c1

>  <Result>
17.6 µM (inactive)

$$$$
>  <Compound>
O=C1C2C(C(=O)N1c1ccccc1)C1(c3ccccc3)CCC2(C(=O)c2ccccc2)O1 (stereo not given)

>  <Result>
> 10 µM (inactive)

$$$$
>  <Compound>
CN(C)c1ccc(/N=N/c2ccncc2)cc1

>  <Result>
84.1 µM (inactive)

$$$$
>  <Compound>
C=C(C)CNC(=S)N(N)c1ccc2ccccc2c1

>  <Result>
> 100 µM (inactive)

$$$$
>  <Compound>
C/C(=C/CC[C@](C)(OC1OC(CO)C(O)C(O)C1O)[C@H]1CC[C@]2(C)[C@@H]1CC[C@@H]1[C@@]3(C)CC[C@H](O)C(C)(C)[C@@H]3C[C@H](O)[C@]12CO)CO (stereo not given in full)

>  <Result>
> 100 µM (inactive)

$$$$
>  <Compound>
CC(=O)Oc1ccc2c(c1)Oc1cc(C(C)=O)ccc1C21OC(=O)c2ccccc21 (stereo not given)

>  <Result>
> 100 µM (inactive)

$$$$
>  <Compound>
CC(=O)OCc1cncn1S(=O)(=O)c1ccc(C)cc1

>  <Result>
> 83.4 µM (inactive)

$$$$
>  <Compound>
O=[N+]([O-])c1ccc2c(c1)c1nn2CCCCOc2nn(c3ccc([N+](=O)[O-])cc23)CCCCO1

>  <Result>
> 100 µM (inactive)

$$$$
>  <Compound>
Nc1nncs1

>  <Result>
1940 µM (inactive)

$$$$
>  <Compound>
CC(=O)O[C@H]1C#C/C=C\C#CC[C@@H]2C(=O)N[C@@H]12

>  <Result>
30.7 µM (inactive)

$$$$
>  <Compound>
CC(=O)OC1CC[C@@]2(C)C(CC[C@]3(C)C2CC=C2[C@@H]4CC(C)(C)CCC4(C)CCC23C)[C@@]1(C)C(=O)O (stereo not given in full)

>  <Result>
29.9 µM (inactive)

$$$$
>  <Compound>
O=C1/C(=C/c2cccc3ccccc23)CCc2ccc([N+](=O)[O-])cc21

>  <Result>
16.1 µM (inactive)

$$$$
>  <Compound>
O=C1O/C(=C\c2ccc(O)c(Br)c2)C(c2ccc(O)c(Cl)c2)=C1Br

>  <Result>
17.9 µM (inactive)

$$$$
>  <Compound>
CCc1c(-c2ccc(OC)cc2)oc(OC)c(C)c1=O

>  <Result>
93.8 µM (inactive)

$$$$
>  <Compound>
C/C(Nc1ccc(Cl)cc1)=C1/CCOC1=O

>  <Result>
52.7 µM (inactive)

$$$$
>  <Compound>
O=C(O)C1CCCCC1C(=O)Nc1nc2ccccc2[nH]1 (stereo not given)

>  <Result>
> 100 µM (inactive)

$$$$
>  <Compound>
Cc1cc(NS(=O)(=O)c2ccc(NC(=O)c3cccc4c(NNc5ccc(S(=O)(=O)N=C(N)N)cc5)c5ccccc5nc34)cc2)no1

>  <Result>
57.8 µM (inactive)

$$$$
